target: UniProt:A8MUK1; experiment: ubiquitin-specific protease 17 DUB inhibitors, concentration-effect assay, cell-free, verification of initial screening actives (AID 1645864); conditions: purified USP17, ubiquitin-rhodamine cleavage fluorescence, 3 h
The source made the active and inactive calls.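 The calls were made as follows: active = maximal inhibition of USP17 at or above 30% in the confirmation dose-response, a value not among the printed readouts; inactive = the rest.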
One label from this list, please: active, inactive

molecule: Cc1ccc(C(=O)Nc2nc3n(n2)C(c2ccccc2)CC(=O)N3)cc1 (configuration not stated)
assigned-class: active
--
molecule: Cc1noc(C)c1S(=O)(=O)Nc1ccc(C(=O)Nc2ccc3c(c2)OCCO3)cc1
assigned-class: inactive
--
molecule: COc1ccc(OC)c(NC(=O)c2cc(Cl)ccc2OC)c1
assigned-class: active
--
molecule: CCOc1ccc(NC(=O)Cn2c(=O)n(CC(=O)NCc3ccc(C)cc3)c(=O)c3sccc32)cc1
assigned-class: active
--
molecule: COc1ccc(NC2c3ccccc3C(=O)N2c2ccccn2)cc1 (configuration not stated)
assigned-class: inactive

**Query** Per the records of this test, what outcome belongs to `O=C(Nc1ccc(N2CCOCC2)cc1)c1cc(=O)[nH]c2ccccc12` ?
**Result** active

**Query** Per the records of this test, what outcome belongs to `COc1ccc(NC(=O)c2nnn(-c3ccccc3)c2C)cc1OC` ?
**Result** inactive

**Query** Per the records of this test, what outcome belongs to `COc1cccc(NC(=O)c2ccc(F)cc2Cl)c1` ?
**Result** inactive

**Query** Per the records of this test, what outcome belongs to `O=C(CN1CCCCC1)Nc1nnc(-c2ccc([N+](=O)[O-])cc2)s1` ?
**Result** active

**Query** Per the records of this test, what outcome belongs to `O=C(NCc1ccc(CN2CCCC2)cc1)c1cc2ccccc2[nH]c1=O` ?
**Result** active

**Query** Per the records of this test, what outcome belongs to COc1ccc(NC(=O)C2C3C=CC4(O3)C2C(=O)N(CCc2ccccc2)C4C(=O)NC2CCCCC2)cc1 (configuration not stated) ?
**Result** active

**Query** Per the records of this test, what outcome belongs to `O=C(CCn1c(=O)c2ccccc2n(Cc2cc(=O)n3ccccc3n2)c1=O)NCCc1ccc(Cl)cc1` ?
**Result** active

**Query** Per the records of this test, what outcome belongs to `CCn1c(COc2cccc(C(F)(F)F)c2)nnc1SCc1ccc(Cl)cc1` ?
**Result** active

**Query** Per the records of this test, what outcome belongs to `COc1ccc(S(=O)(=O)N(C)Cc2cccs2)cc1OC` ?
**Result** inactive

**Query** Per the records of this test, what outcome belongs to `CSc1ccc(CNCc2c(C(=O)O)n(Cc3ccccc3)c3cc(C)ccc23)cc1` ?
**Result** inactive

**Query** Per the records of this test, what outcome belongs to `CCCC(=O)Nc1ccc(SCc2nnc(-c3ccccc3)o2)cc1` ?
**Result** inactive

**Query** Per the records of this test, what outcome belongs to `c1ccc2c(c1)ccc1nnc(-c3ccc4c(c3)OCO4)n12` ?
**Result** inactive

**Query** Per the records of this test, what outcome belongs to CCC1=C(c2ccc(C)cc2)S(=O)(=O)NC1=NCC(=O)NC(C)c1ccccc1 (configuration not stated) ?
**Result** active

**Query** Per the records of this test, what outcome belongs to `Cc1nc(-c2cccc(NC(=O)c3ccccc3Cl)c2)no1` ?
**Result** inactive

**Query** Per the records of this test, what outcome belongs to `CSc1cccc(C(=O)Nc2ccc(-c3nc4ccccc4[nH]3)cc2)c1` ?
**Result** active

**Query** Per the records of this test, what outcome belongs to `Cc1cc2nc(/C=C/c3ccccc3)n(Cc3cccc(F)c3)c2cc1C` ?
**Result** inactive

**Query** Per the records of this test, what outcome belongs to `O=C(Cn1nc2c3c4c(sc3ncn2c1=O)CCCCC4)Nc1ccc(Cl)cc1F` ?
**Result** active

====

biological target: Ubiquitin carboxyl-terminal hydrolase 17-like protein 5 (Homo sapiens) (UniProt A8MUK1); experiment: ubiquitin-specific protease 17 DUB inhibitors, concentration-effect assay, cell-free, verification of initial screening actives (AID 1645864); conditions: purified USP17, ubiquitin-rhodamine cleavage fluorescence, 3 h;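 active = maximal inhibition of USP17 at or above 30% in the confirmation dose-response, a value not among the printed readouts; inactive = the rest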
Sequence (A8MUK1 whole entry, looked up): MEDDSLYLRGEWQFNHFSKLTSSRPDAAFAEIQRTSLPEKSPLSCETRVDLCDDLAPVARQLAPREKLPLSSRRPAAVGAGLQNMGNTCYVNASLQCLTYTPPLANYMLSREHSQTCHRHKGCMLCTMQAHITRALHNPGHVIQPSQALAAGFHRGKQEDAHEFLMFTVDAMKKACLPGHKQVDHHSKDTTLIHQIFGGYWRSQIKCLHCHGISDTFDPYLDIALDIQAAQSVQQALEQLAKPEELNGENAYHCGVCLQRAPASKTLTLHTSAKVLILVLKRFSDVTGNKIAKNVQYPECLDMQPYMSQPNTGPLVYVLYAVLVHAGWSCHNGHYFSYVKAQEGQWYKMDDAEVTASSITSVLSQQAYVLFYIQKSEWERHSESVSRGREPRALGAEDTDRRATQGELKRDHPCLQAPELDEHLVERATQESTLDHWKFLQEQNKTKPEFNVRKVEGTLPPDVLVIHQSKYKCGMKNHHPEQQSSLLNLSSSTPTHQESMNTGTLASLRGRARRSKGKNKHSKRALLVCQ
One label from this list, please: true (1) (active), false (0) (inactive)

**Query** Per the records of this test, what outcome belongs to `COc1ccc2c(c1)CCc1c-2n[nH]c1C(=O)Nc1cc(C)on1` ?
**Result** true (1)

**Query** Per the records of this test, what outcome belongs to `COc1ccc(OCC(=O)Nc2ccc(C)c(OCc3cc(=O)n4ccccc4n3)c2)cc1` ?
**Result** true (1)

====

biological target: Ubiquitin carboxyl-terminal hydrolase 17-like protein 5 (Homo sapiens); assay: ubiquitin-specific protease 17 DUB inhibitors, concentration-effect assay, cell-free, verification of initial screening actives (AID 1645864); details: purified USP17, ubiquitin-rhodamine cleavage fluorescence, 3 h
Activity calls are given as the source filed them.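 The calls were made as follows: active = maximal inhibition of USP17 at or above 30% in the confirmation dose-response, a value not among the printed readouts; inactive = the rest.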
quantity-measured: IC50

Consider the reported IC50 for these compounds:
compound: CC(=O)Nc1ccc(S(=O)(=O)NCc2ccc(C(=O)NCCc3ccc(Cl)cc3)cc2)cc1
result: 2.31 µM
//
compound: O=C(Nc1cc(-c2cccnc2)no1)c1ccc(F)c(F)c1
result: 19.3 µM
//
compound: Cc1nn(Cc2ccccc2)c(C)c1C(=O)NC1CCCc2ccccc21 (centres undefined)
result: > 50 µM (inactive)

**Query** Provide the documented IC50 with Ubiquitin carboxyl-terminal hydrolase 17-like protein 5 (Homo sapiens) as the system for `Cc1ccc2nc(-c3cccc(-c4nc5ccc(C)cc5[nH]4)n3)[nH]c2c1`
**Result** 7.06 µM

**Query** Provide the documented IC50 with Ubiquitin carboxyl-terminal hydrolase 17-like protein 5 (Homo sapiens) as the system for `CCCc1nc2sc3c(NCCN4CCOCC4)ncnc3c2c2c1CCC2`
**Result** > 50 µM (inactive)

**Query** Provide the documented IC50 with Ubiquitin carboxyl-terminal hydrolase 17-like protein 5 (Homo sapiens) as the system for `COc1ccc(OC)c(NC(=O)c2ccc(-n3nnnc3SC)cc2)c1`
**Result** 29.9 µM

**Query** Provide the documented IC50 with Ubiquitin carboxyl-terminal hydrolase 17-like protein 5 (Homo sapiens) as the system for CC1CC[C@]2(NC1)O[C@H]1C[C@H]3[C@@H]4CC[C@H]5C[C@@H](O[C@@H]6O[C@H](CO)[C@H](O[C@@H]7O[C@H](CO)[C@@H](O)[C@H](O[C@@H]8OC[C@@H](O)[C@H](O)[C@H]8O)[C@H]7O[C@@H]7O[C@H](CO)[C@@H](O)[C@H](O)[C@H]7O)[C@H](O)[C@H]6O)CC[C@]5(C)[C@H]4CC[C@]3(C)[C@H]1[C@@H]2C (some centres undefined)
**Result** 40 µM

**Query** Provide the documented IC50 with Ubiquitin carboxyl-terminal hydrolase 17-like protein 5 (Homo sapiens) as the system for `COc1ccc2[nH]cc(S(=O)(=O)c3ccc(C)c(F)c3)c(=O)c2c1`
**Result** 48 µM

**Query** Provide the documented IC50 with Ubiquitin carboxyl-terminal hydrolase 17-like protein 5 (Homo sapiens) as the system for `CCCC(=O)c1c[nH]c(C(=O)NCc2ccc(F)cc2)c1`
**Result** 14.5 µM

**Query** Provide the documented IC50 with Ubiquitin carboxyl-terminal hydrolase 17-like protein 5 (Homo sapiens) as the system for `Cc1ccc(NC(=O)Cn2c(-n3nc(C)cc3C)nc3c(c2=O)CCCC3)c(C)c1`
**Result** 32.6 µM

====

target: UniProt A8MUK1; assay: ubiquitin-specific protease 17 DUB inhibitors, concentration-effect assay, cell-free, verification of initial screening actives (AID 1645864); conditions: purified USP17, ubiquitin-rhodamine cleavage fluorescence, 3 h
Calls of active or inactive are those of the source.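 Rule for the calls: active = maximal inhibition of USP17 at or above 30% in the confirmation dose-response, a value not among the printed readouts; inactive = the rest.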
Measured IC50 by item

Consider the reported IC50 for these compounds:
compound: O=C(NCc1cccnc1)c1cnn2c(C(F)(F)F)cc(-c3ccccc3)nc12
result: > 50 µM (inactive)
//
compound: O=C(Nc1cccc(C(F)(F)F)c1)N1CCCn2c(nc3ccccc32)C1
result: 25 µM
//
compound: O=C(NC(Cc1ccccc1)c1nc2ccccc2[nH]1)c1ccccn1 (stereo not given)
result: > 50 µM (inactive)
//
compound: Cc1ccc2c(=O)c3c([nH]c2c1C)CCN(CC(=O)NCc1ccc2c(c1)OCO2)C3
result: 32.8 µM
//
compound: Cc1cc(C)c(NC(=O)Cn2c(=O)n(CCC(=O)NCc3ccc4c(c3)OCO4)c(=O)c3sccc32)c(C)c1
result: 3.02 µM
//
compound: COc1cccc(-c2nc(C(N)=O)c3[nH]c(=O)n(-c4cccc(Cl)c4)c3n2)c1OC
result: > 50 µM (inactive)

**Query** Dear colleague, I am looking for the recorded IC50 of the following compound: `CCOc1ccc(CCNC(=O)c2cccc3c2C(=O)N(CCOC)C3)cc1OCC`
**Result** > 50 µM (inactive)

**Query** Dear colleague, I am looking for the recorded IC50 of the following compound: `Fc1ccc(Cc2nc(-c3ccc4nncn4c3)no2)cc1`
**Result** > 50 µM (inactive)

**Query** Dear colleague, I am looking for the recorded IC50 of the following compound: `COc1ccc(Cl)cc1NC(=O)c1cc(-c2ccccn2)n[nH]1`
**Result** 0.202 µM

**Query** Dear colleague, I am looking for the recorded IC50 of the following compound: `O=C(CSc1nnc(-c2ccncc2)n1Cc1ccccc1)c1ccc2[nH]c(O)cc2c1`
**Result** 4.12 µM
